Test system: Aedes aegypti mosquitoes
assay.remarks: Drug effect on mosquito fecundity (eggs laid after 96 h)
Assay type: in vivo
run.parameters: 4 days; IVM 0.1, KCZ 5, RIF 10, RTV 10, PBO 10 μg/ml in blood; 50 mosquitoes
Reported Mosquito fecundity, Batch 2, mg eggs (4 days) by item:
Just the number please, in mg eggs, no unit attached.

compound: CO[C@H]1/C=C/O[C@@]2(C)Oc3c(C)c(O)c4c(O)c(c(/C=N/N5CCN(C)CC5)c(O)c4c3C2=O)NC(=O)/C(C)=C\C=C\[C@H](C)[C@H](O)[C@@H](C)[C@@H](O)[C@@H](C)[C@H](OC(C)=O)[C@@H]1C
system.tested: Aedes aegypti mosquitoes
experimental.value: 21.40
//
compound: CC(C)c1nc(CN(C)C(=O)N[C@H](C(=O)N[C@@H](Cc2ccccc2)C[C@H](O)[C@H](Cc2ccccc2)NC(=O)OCc2cncs2)C(C)C)cs1
system.tested: Aedes aegypti mosquitoes
experimental.value: 21.29
//
compound: CC(=O)N1CCN(c2ccc(OCC3COC(Cn4ccnc4)(c4ccc(Cl)cc4Cl)O3)cc2)CC1 (centres unmarked)
system.tested: Aedes aegypti mosquitoes
experimental.value: 22.14

Mosquito fecundity, Batch 2, mg eggs (4 days) measured on CCC(C)C1OC2(CCC1C)CC1CC(CC=C(C)C(OC3CC(OC)C(OC4CC(OC)C(O)C(C)O4)C(C)O3)C(C)C=CC=C3COC4C(O)C(C)=CC(C(=O)O1)C34O)O2 (centres unmarked) = 8.65

Mosquito fecundity, Batch 2, mg eggs (4 days) measured on CCCCOCCOCCOCc1cc2c(cc1CCC)OCO2 [piperonyl butoxide] = 20.66

----------
assay.remarks: Pharmacokinetic and drug-drug interaction studies in blood-fed mosquitoes (concentration-time courses, population PK modelling)
run.parameters: female, Aedes aegypti, whole mosquito (whole-body extract), oral, CYP modulator concentration (ng/mg mosquito), Treatment RTV + IVM (10 µg/ml RTV, 0.1 µg/ml IVM), Batch 3, 0 h post feeding, single mosquitoes 1-20
parameter.measured: concentration at 0 h (ng/g)
Just the number please, in ng/g, no unit attached.

concentration at 0 h measured on CC(C)c1nc(CN(C)C(=O)N[C@H](C(=O)N[C@@H](Cc2ccccc2)C[C@H](O)[C@H](Cc2ccccc2)NC(=O)OCc2cncs2)C(C)C)cs1 = 4230

----------
assay.remarks: Pharmacokinetic and drug-drug interaction studies in blood-fed mosquitoes (concentration-time courses, population PK modelling)
run.parameters: female, Aedes aegypti, in vivo, CYP modulator concentration (ng/mg mosquito), Treatment KCZ + IVM (5 µg/ml KCZ, 0.1 µg/ml IVM), Batch 1, 72 h post feeding, single mosquitoes 1-20
parameter.measured: concentration at 72 h (ng/g)
Just the number please, in ng/g, no unit attached.

concentration at 72 h measured on CC(=O)N1CCN(c2ccc(OCC3COC(Cn4ccnc4)(c4ccc(Cl)cc4Cl)O3)cc2)CC1 (stereo not shown) = 0

----------
Reported Mosquito fertility, Batch 3, hatching rate by item:
Tested on: Aedes aegypti mosquitoes
assay.remarks: Drug effect on mosquito fertility (percentage of eggs hatched)
Assay type: in vivo
run.parameters: 100 eggs laid 48-96 h post-treatment; IVM 0.1, KCZ 5, RIF 10, RTV 10, PBO 10 μg/ml in blood
Just the number please, in %, no unit attached.

molecule: CC(=O)N1CCN(c2ccc(OCC3COC(Cn4ccnc4)(c4ccc(Cl)cc4Cl)O3)cc2)CC1 (centres unmarked) [ketoconazole]
system.tested: Aedes aegypti mosquitoes
unit.of.measure: %
experimental.value: 82
--
molecule: CCCCOCCOCCOCc1cc2c(cc1CCC)OCO2 [piperonyl butoxide]
system.tested: Aedes aegypti mosquitoes
unit.of.measure: %
experimental.value: 86
--
molecule: CO[C@H]1/C=C/O[C@@]2(C)Oc3c(C)c(O)c4c(O)c(c(/C=N/N5CCN(C)CC5)c(O)c4c3C2=O)NC(=O)/C(C)=C\C=C\[C@H](C)[C@H](O)[C@@H](C)[C@@H](O)[C@@H](C)[C@H](OC(C)=O)[C@@H]1C [rifampicin]
system.tested: Aedes aegypti mosquitoes
unit.of.measure: %
experimental.value: 79
--
molecule: CC(C)c1nc(CN(C)C(=O)N[C@H](C(=O)N[C@@H](Cc2ccccc2)C[C@H](O)[C@H](Cc2ccccc2)NC(=O)OCc2cncs2)C(C)C)cs1 [ritonavir]
system.tested: Aedes aegypti mosquitoes
unit.of.measure: %
experimental.value: 83

Below: the item to evaluate.
Mosquito fertility, Batch 3, hatching rate measured on CCC(C)C1OC2(CCC1C)CC1CC(CC=C(C)C(OC3CC(OC)C(OC4CC(OC)C(O)C(C)O4)C(C)O3)C(C)C=CC=C3COC4C(O)C(C)=CC(C(=O)O1)C34O)O2 (centres unmarked) [ivermectin] = 1

Reference source for all entries: paper PMC7968666
